# Target Or Test System: KRas wild type (Homo sapiens (Human))
# Sequence (P01116 other isoform, or with tags, fused parts or gaps): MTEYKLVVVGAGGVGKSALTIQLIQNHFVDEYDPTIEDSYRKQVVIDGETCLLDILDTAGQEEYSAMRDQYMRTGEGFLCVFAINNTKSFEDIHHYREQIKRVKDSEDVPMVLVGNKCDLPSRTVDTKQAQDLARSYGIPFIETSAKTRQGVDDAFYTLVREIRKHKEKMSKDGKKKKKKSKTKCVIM
# Experimental Protocol: Ras GTP Binding Domain Inhibition Assay, KRas wild type
# Experimental Setup: without SOS, read-out: KRas wild type: % inh.
Quantity Measured: inhibition at 20 µM

Here are 6 molecules together with their reported answers.
Molecule: COc1cc(-c2sc3nc(-c4nccn4C)nc(N[C@@H]4CC[C@H](OC)C4)c3c2-c2ccccc2)ccn1 (racemic)
Target Or Test System: KRas wild type (Homo sapiens (Human))
inhibition at 20 µM: 46 to 75%
//
Molecule: COc1cccc(Nc2nc(-c3nccn3C)nc3sc(-c4ccn(C(C)C)n4)c(C)c23)n1
Target Or Test System: KRas wild type (Homo sapiens (Human))
inhibition at 20 µM: 46 to 75%
//
Molecule: COCCn1ccc(-c2sc3nc(-c4nccn4C)nc(NC[C@H]4CC[C@H]4COC)c3c2C)n1 (racemic)
Target Or Test System: KRas wild type (Homo sapiens (Human))
inhibition at 20 µM: 46 to 75%
//
Molecule: COCCCOc1nc(-c2nccn2C)nc2sc(-c3ccn(C(C)C)n3)c(C)c12
Target Or Test System: KRas wild type (Homo sapiens (Human))
inhibition at 20 µM: 76 to 100%
//
Molecule: COC1CCCN(c2nc(-c3nccn3C)nc3sc(-c4ccn(C(C)C)n4)c(C)c23)C1 (racemic)
Target Or Test System: KRas wild type (Homo sapiens (Human))
inhibition at 20 µM: 0%
//
Molecule: COc1cccc(-c2sc3nc(-c4nccn4C)nc(N[C@H]4C[C@H](OC)C4)c3c2-c2ccccc2)c1F
Target Or Test System: KRas wild type (Homo sapiens (Human))
inhibition at 20 µM: 46 to 75%

Proceeding to the next molecule to report its inhibition at 20 µM.
get_value(item= COCCOCCNc1nc(-c2nccn2C)nc2sc(-c3ccn(C(C)C)n3)c(C)c12 , readout=inhibition at 20 µM) returns 76 to 100%

====

# Target Or Test System: KRas G12D mutant (Homo sapiens (Human), UniProt P01116, G12D)
# Sequence (P01116 other isoform, or with tags, fused parts or gaps G12D): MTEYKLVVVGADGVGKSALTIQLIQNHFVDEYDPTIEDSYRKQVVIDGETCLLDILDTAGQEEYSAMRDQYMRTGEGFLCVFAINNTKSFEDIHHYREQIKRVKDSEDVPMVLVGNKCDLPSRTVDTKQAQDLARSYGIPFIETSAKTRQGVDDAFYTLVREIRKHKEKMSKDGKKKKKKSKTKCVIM
# Experimental Protocol: Ras GTP Binding Domain Inhibition Assay, KRas G12D mutant
# Experimental Setup: 20 μM; without SOS; Table 7; read-out: KRas G12D mutant: % inh.
// reported inhibition at 20 µM per item

Here are 5 compounds together with their reported answers.
Compound: COCCOCCNc1nc(-c2nccn2C)nc2sc(-c3ccn(C(C)C)n3)c(C)c12
inhibition at 20 µM: 76 to 100%
//
Compound: COCCCn1c(-c2nccn2C)nc2sc(-c3ccn(C(C)C)n3)c(C)c2c1=O
inhibition at 20 µM: 0%
//
Compound: COCCN(C)c1nc(-c2nccn2C)nc2sc(-c3ccccc3)c(-c3ccccc3)c12
inhibition at 20 µM: 46 to 75%
//
Compound: COCCn1ccnc1-c1nc(N[C@H]2C[C@@H](OC)C2)c2c(-c3ccccc3)c(-c3ccn(C)n3)sc2n1
inhibition at 20 µM: 46 to 75%
//
Compound: COc1cc(Cn2c(-c3nccn3C)nc3sc(-c4ccn(C(C)C)n4)c(C)c3c2=O)ncn1
inhibition at 20 µM: 1 to 25%

The measured inhibition at 20 µM that COCCn1c(-c2nccn2C)nc2sc(-c3ccn(C(C)C)n3)c(C)c2c1=O showed for KRas G12D mutant (Homo sapiens (Human), UniProt P01116, G12D) is 46 to 75%

The measured inhibition at 20 µM that CO[C@H]1C[C@H](CNc2nc(-c3nccn3C)nc3sc(-c4ccn(C(C)C)n4)c(C)c23)C1 showed for KRas G12D mutant (Homo sapiens (Human), UniProt P01116, G12D) is 26 to 45%

The measured inhibition at 20 µM that COCC1(OC)CCN(c2nc(-c3nccn3C)nc3sc(-c4ccn(C(C)C)n4)c(C)c23)C1 (racemic) showed for KRas G12D mutant (Homo sapiens (Human), UniProt P01116, G12D) is 46 to 75%

The measured inhibition at 20 µM that COCCCNc1nc(-c2nccn2C)nc2sc(-c3ccccc3)c(-c3ccccc3)c12 showed for KRas G12D mutant (Homo sapiens (Human), UniProt P01116, G12D) is 46 to 75%

The measured inhibition at 20 µM that COc1cccc(Nc2nc(-c3nccn3C)nc3sc(-c4ccn(C(C)C)n4)c(C)c23)n1 showed for KRas G12D mutant (Homo sapiens (Human), UniProt P01116, G12D) is 76 to 100%

The measured inhibition at 20 µM that COCCNc1nc(-c2nccn2C)nc2sc(-c3cccc(OC)c3Cl)c(-c3ccccc3)c12 showed for KRas G12D mutant (Homo sapiens (Human), UniProt P01116, G12D) is 46 to 75%

====

# Target Or Test System: KRas G12C mutant (Homo sapiens (Human), UniProt P01116, G12C)
# Sequence (P01116 other isoform, or with tags, fused parts or gaps G12C): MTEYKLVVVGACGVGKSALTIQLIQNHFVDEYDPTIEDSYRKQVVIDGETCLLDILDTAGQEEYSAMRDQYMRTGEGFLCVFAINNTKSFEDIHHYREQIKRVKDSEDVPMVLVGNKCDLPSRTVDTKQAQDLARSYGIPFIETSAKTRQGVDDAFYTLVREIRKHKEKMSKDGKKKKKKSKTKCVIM
# Experimental Protocol: Ras GTP Binding Domain Inhibition Assay, KRas G12C mutant
# Experimental Setup: without SOS, read-out: KRas G12C mutant: % inh.
Quantity Measured: inhibition at 20 µM

Compound: COCC1(OC)CCN(c2nc(-c3nccn3C)nc3sc(-c4ccn(C(C)C)n4)c(C)c23)C1 (racemic)
inhibition at 20 µM: 76 to 100%
--
Compound: COc1cccc(Nc2nc(-c3nccn3C)nc3sc(-c4ccn(C(C)C)n4)c(C)c23)n1
inhibition at 20 µM: 46 to 75%
--
Compound: COc1cc(-c2sc3nc(-c4nccn4C)nc(N[C@@H]4CC[C@H](OC)C4)c3c2-c2ccccc2)ccn1 (racemic)
inhibition at 20 µM: 26 to 45%
--
Compound: COCCNc1nc(-c2cn(C)cn2)nc2sc(-c3cccc(OC)c3Cl)c(-c3ccc(OC)cc3)c12
inhibition at 20 µM: 26 to 45%

Proceeding to the next compound to report its inhibition at 20 µM.
get_value(item= CO[C@H]1CNC[C@@H](Nc2nc(-c3nccn3C)nc3sc(-c4ccn(C(C)C)n4)cc23)C1 , readout=inhibition at 20 µM) returns 76 to 100%

====

// reported inhibition at 20 µM per item
# Target Or Test System: Rac-1 (Homo sapiens (Human))
# Experimental Protocol: Ras GTP Binding Domain Inhibition Assay, Rac-1
# Experimental Setup: without SOS, read-out: Rac-1: % inh.

Compound: COC1CCCN(c2nc(-c3nccn3C)nc3sc(-c4ccn(C(C)C)n4)c(C)c23)C1 (racemic) [Compound 14]
Quantity Measured: inhibition at 20 µM
Val: 46 to 75%
//
Compound: COCC1(OC)CCN(c2nc(-c3nccn3C)nc3sc(-c4ccn(C(C)C)n4)c(C)c23)C1 (racemic) [Compound 27]
Quantity Measured: inhibition at 20 µM
Val: 1 to 25%
//
Compound: COCCn1ccc(-c2sc3nc(-c4nccn4C)nc(NC[C@H]4CC[C@H]4COC)c3c2C)n1 (racemic) [Compound 38]
Quantity Measured: inhibition at 20 µM
Val: 1 to 25%

Proceeding to the next compound to report its inhibition at 20 µM.
get_value(item= Cc1c(-c2ccn(C(C)C)n2)sc2nc(-c3nccn3C)nc(NCC3CN(C)CCO3)c12 (racemic) [Compound 25] , readout=inhibition at 20 µM) returns 76 to 100%

====

# Target Or Test System: KRas Q61H mutant (Homo sapiens (Human), UniProt P01116, Q61H)
# Sequence (P01116 other isoform, or with tags, fused parts or gaps Q61H): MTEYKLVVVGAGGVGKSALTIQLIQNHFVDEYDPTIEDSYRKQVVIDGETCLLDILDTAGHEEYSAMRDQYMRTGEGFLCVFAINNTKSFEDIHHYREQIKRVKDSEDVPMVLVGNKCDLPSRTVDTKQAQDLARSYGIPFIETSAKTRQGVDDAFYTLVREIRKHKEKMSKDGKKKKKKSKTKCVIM
# Experimental Protocol: Ras GTP Binding Domain Inhibition Assay, KRas Q61H mutant
# Experimental Setup: 20 μM; + SOS; read-out: KRas Q61H mutant + SOS: % inh.
Quantity Measured: inhibition at 20 µM

Here are 2 compounds together with their reported answers.
Compound: COc1cccc(-c2sc3nc(-c4nccn4C)nc(N[C@H]4C[C@H](OC)C4)c3c2-c2ccccc2)c1F
Val: 76 to 100%
//
Compound: COC1CCN(c2nc(-c3nccn3C)nc3sc(-c4ccn(C)n4)c(-c4ccccc4)c23)CC1
Val: 46 to 75%

get_value(item= COC1CCCN(c2nc(-c3nccn3C)nc3sc(-c4ccn(C(C)C)n4)c(C)c23)C1 (racemic) , readout=inhibition at 20 µM) returns 76 to 100%

get_value(item= COCCCNc1nc(-c2nccn2C)nc2sc(-c3ccccc3)c(-c3ccccc3)c12 , readout=inhibition at 20 µM) returns 46 to 75%

get_value(item= COc1cc(Cn2c(-c3nccn3C)nc3sc(-c4ccn(C(C)C)n4)c(C)c3c2=O)ncn1 , readout=inhibition at 20 µM) returns 1 to 25%

get_value(item= COc1cc(Nc2nc(-c3nccn3C)nc3sc(-c4ccn(C(C)C)n4)c(C)c23)ncn1 , readout=inhibition at 20 µM) returns 76 to 100%

get_value(item= COCC1CN(c2nc(-c3nccn3C)nc3sc(-c4ccn(C(C)C)n4)c(C)c23)CCO1 (racemic) , readout=inhibition at 20 µM) returns 76 to 100%

====

# Target Or Test System: Rac-1 (Homo sapiens (Human), UniProt P63000)
# Experimental Protocol: Ras GTP Binding Domain Inhibition Assay, Rac-1
# Experimental Setup: + SOS, read-out: Rac-1 + SOS: % inh.
// reported inhibition at 20 µM per item

Molecule: CO[C@H]1CC[C@@H](Nc2nc(-c3nccn3C)nc3sc(-c4ccn(C(C)C)n4)c(C)c23)C1 (racemic) [Compound 12]
inhibition at 20 µM: 46 to 75%

get_value(item= CO[C@H]1CC[C@@H](Nc2nc(-c3nccn3C)nc3sc(-c4ccn(C)n4)c(-c4ccccc4)c23)C1 (racemic) [Compound 5] , readout=inhibition at 20 µM) returns 46 to 75%

get_value(item= COCCn1ccnc1-c1nc(N[C@H]2C[C@@H](OC)C2)c2c(-c3ccccc3)c(-c3ccn(C)n3)sc2n1 [Compound 13] , readout=inhibition at 20 µM) returns 76 to 100%

get_value(item= COc1cccc(-c2sc3nc(-c4nccn4C)nc(NC4CCC(OC)C4)c3c2C)c1F (racemic) [Compound 10] , readout=inhibition at 20 µM) returns 46 to 75%
